- Test system: Vero E6 infected with SARS-CoV-2
- assay: inhibition of SARS-CoV-2 cytopathic effect; higher = more antiviral protection, active = above 15
- experimentalSetup: 1 nM; 48 h
attributeMeasured: inhibition of SARS-CoV-2 cytopathic effect (%)
Give the number; % is assumed, so skip it.

Examples with answers:
molecule | reported
CCC(CC)C(c1ccc(Nc2nc3ccccc3s2)cc1)n1cncn1 (centres undefined) | 3.05
NC1CCN(c2cccc(Cl)n2)CC1 | 0.72
CC(C)(C)C(=O)OCOP(=O)(COCCn1cnc2c(N)ncnc21)OCOC(=O)C(C)(C)C | 2.79
CCN(CC)CCOC(=O)C(c1ccccc1)c1ccccc1 | -1.11

Query string: inhibition of SARS-CoV-2 cytopathic effect for CC(=O)[C@@]12O[C@](C)(c3ccccc3)O[C@@H]1C[C@H]1[C@@H]3CCC4=CC(=O)CC[C@]4(C)[C@H]3CC[C@@]12C [algestone-acetophenide] ?
Result string: 0.43

Query string: inhibition of SARS-CoV-2 cytopathic effect for C[C@@H]1O[C@@H]1P(=O)(O)O ?
Result string: 0.82

Query string: inhibition of SARS-CoV-2 cytopathic effect for O=C1NC(=O)C(c2cnc3ccccn23)=C1c1cn2c3c(cc(F)cc13)CN(C(=O)N1CCCCC1)CC2 ?
Result string: 0.79

Query string: inhibition of SARS-CoV-2 cytopathic effect for O=C(Nc1ccc(OC(F)(F)F)cc1)c1sccc1NCc1ccnc2ccccc12 ?
Result string: -2.32

Query string: inhibition of SARS-CoV-2 cytopathic effect for CC(C)SC(=N)N ?
Result string: 1.63

====

- System: Vero E6 infected with SARS-CoV-2
- assay: morphology score (similarity to uninfected cells); higher = more like uninfected cells
- experimentalSetup: 24 h
attributeMeasured: morphology score
// keep it numeric: no unit symbol after the value

Examples with answers:
compound | measuredOn | reported
NC(=O)N1CCC(CC(=O)N2CCC([C@H]3c4ncc(Br)cc4CCc4cc(Cl)cc(Br)c43)CC2)CC1 [lonafarnib] (10 µM) | Vero E6 infected with SARS-CoV-2 | 0.736
CNC(=O)[C@@H](NC(=O)[C@H](CC(C)C)[C@H](O)C(=O)NO)C(C)(C)C [marimastat] (10 µM) | Vero E6 infected with SARS-CoV-2 | -0.0923

Query string: Give recorded morphology score with Vero E6 infected with SARS-CoV-2 for the following compound: CC1(C)C[C@@H]1C(=O)N/C(=C\CCCCSC[C@H](N)C(=O)O)C(=O)O [Cilastatin Sodium] (10 µM)
Result string: 0.215

Query string: Give recorded morphology score with Vero E6 infected with SARS-CoV-2 for the following compound: CCOC(=O)Nc1ccc2c(c1)N(C(=O)CN(C)C)c1ccccc1CC2 [tiracizine] (10 µM)
Result string: -0.162

Query string: Give recorded morphology score with Vero E6 infected with SARS-CoV-2 for the following compound: Cc1cc(OCc2nnc(SC3CCCC3)n2-c2cccnc2)ccc1-c1ccc(S(C)(=O)=O)cc1 (0.833333 µM)
Result string: 0.0612

Query string: Give recorded morphology score with Vero E6 infected with SARS-CoV-2 for the following compound: Cc1ccc(C(=O)Cn2c3c(sc2=N)CCCC3)cc1 [pifithrin-alpha] (10 µM)
Result string: -0.224

Query string: Give recorded morphology score with Vero E6 infected with SARS-CoV-2 for the following compound: CN1CCN(C(=O)c2cc3cc(Cl)ccc3[nH]2)CC1 (10 µM)
Result string: -0.00911

Query string: Give recorded morphology score with Vero E6 infected with SARS-CoV-2 for the following compound: Clc1ccc(CO/N=C(\Cn2ccnc2)c2ccc(Cl)cc2Cl)c(Cl)c1 [oxiconazole] (10 µM)
Result string: -0.0771
